This collection of values is drawn from ChEMBL document CHEMBL3352793.

Give AUC(0-t) at 6 h for every item shown.
assay: in vivo; conditions: rat, in vivo, po, 10 mg/kg

1) COc1ccc2c(c1)NC1(CCN(C(=O)c3ccc(N(C)C)c(Cl)c3)CC1)c1cccn1-2
1.27 µM·h

Dear colleague, could you send me AUC(0-t) at 6 h for each of the items below? Thanks.
1. COc1ccc2c(c1)NC1(CCN(C(=O)c3ccc(N(C)C)cc3)CC1)c1cccn1-2
2. COc1ccc2c(c1)NC1(CCN(C(=O)OCc3ccccc3)CC1)c1cccn1-2
3. N#Cc1ccc(C(=O)N2CCC3(CC2)Nc2ccc(F)cc2-n2cccc23)cc1
4. N#Cc1ccc(C(=O)N2CCC3(CC2)Nc2ccccc2-n2cccc23)cc1

1: 9.44 µM·h; 2: 13.1 µM·h; 3: 12 µM·h; 4: 1.01 µM·h

Dear colleague, could you send me AUC(0-t) at 6 h for each of the items below? Thanks.
1. CN(C)c1cccc(C(=O)N2CCC3(CC2)Nc2ccccc2-n2cccc23)c1
2. COc1ccc2c(c1)NC1(CCN(C(=O)c3ccc(OC)c(Cl)c3)CC1)c1cccn1-2

["0.633 µM·h", "6.81 µM·h"]
